Exercise: state measured pest or weed control at 33 µg/cm2 for each of the compounds provided.
test system: Lambsquarter (Chenopodium album); assay: Pre-Emergent Test, herbicidal effectiveness; format: in vivo; conditions: pre-emergence, 504 h, 33 micrograms per cm^2, 3 weeks, 0-to-100 scale, read-out: Herbicidal Effectiveness, % Control Pre, L
Number first, unit second.

CCc1cccc(CC)c1NCc1nnc(C)[nH]1 [Compound 5A] :: 0%
Cc1cccc(C)c1NCc1nnc(S)[nH]1 [Compound 18A] :: 0%
Cc1nnc(CNc2ccccc2C)[nH]1 [Compound 25A] :: 0%
Cc1nnc(CN(C(=O)CCl)c2c(C)cccc2C)o1 [Compound 1B] :: 50%
CCc1cccc(C)c1NCc1nnc(SC)n1C [Compound 21A] :: 0%
Cc1nnc(CN(C(=O)CCl)c2ccccc2C)[nH]1 [Compound 25B] :: 100%
CCc1cccc(CC)c1NCc1nnc(SC)n1C [Compound 23A] :: 0%

Lab note: next compound to report on.
Exam item: Give the reported pest or weed control at 33 µg/cm2 for this compound. Cc1nnc(CN(C(=O)CCl)c2cccc(C(F)(F)F)c2)[nH]1 [Compound 26B]
Marked response: 10%
